Every entry's value here was drawn from patent US9056923B2.

- System: HUVEC
- test: HUVEC migration assay (RT-CIM)
- Format: cell-based, human
- conditionInfo: 5 uM peptide
Ends that are not written are not given here.
measure: Migration Inhibition (5 uM) (%)
Please state the figure in %; there is no need to write the unit.

## Task Provide measured Migration Inhibition (5 uM) value, entry: LRRFSTMPFMFTNINNVTNF-NH2 [SP2025]
## Result 18.19

## Task // Input: LRRFSTMPFMFANINNVANF-NH2 [SP2023] . Output its Migration Inhibition (5 uM) only.
## Result 31.18

## Task Hello, please tell me recorded Migration Inhibition (5 uM) for this one: LRRFSTMPFMFVNINNVVNF-NH2 [SP2027]
## Result 27.02

## Task Name the recorded Migration Inhibition (5 uM) of the substance listed here: LRRFSTMPFMFININNVINF-NH2 [SP2024]
## Result 37.73

###

- Tested on: HUVEC
- Type: cell-based, human
- conditionInfo: HUVEC, tables 5, 8-10 and text; read-out: IC50 ± 95% CI (μM), proliferation
Ends that are not written are not given here.
measure: IC50 (µM)
Expressed in µM, but write only the number.

## Task Respond only with IC50 recorded for LRRFSTMPFMFININNVINF-NH2 [SP2024]
## Result 7.45

###

- System: HUVEC
- Assay type: cell-based, human
- conditionInfo: HUVEC
Ends that are not written are not given here.
measure: inhibition of proliferation

[[record]]
substance = "LRRFSTMPFMFTNINNVTNF-NH2 [SP2025]"
result = "not affected"

[[record]]
substance = "LRRFSTMPFMFSNINNVSNF-NH2 [SP2022]"
result = "not affected"

[[record]]
substance = "LRRFSTMPFMFVNINNVVNF-NH2 [SP2027]"
result = "not affected"

